Source: patent US7781428B2

Could you please report measured IC50 for the items listed next?
# assay-target: UniProt:P08235
# protocol-summary: Cell-based Gal4 response element-controlled luciferase reporter assay (MR antagonism)
# measurement-setup: Huh7 human liver cells transfected with Gal4 DBD-MR LBD fusion and luciferase reporter; block of agonist-induced activation; overnight incubation
Respond with the bare value in nM.

# input // lookup IC50 for COCc1cc(N2N=C3c4ccc(C(=O)O)cc4CCC3C2C2CCCC2)ccc1C#N (racemic) [Example 28]
# output 150

# input // lookup IC50 for CS(=O)(=O)CCNC(=O)c1ccc2c(c1)CC[C@H]1C2=NN(c2ccc(C#N)c(Cl)c2)[C@H]1C1CCOCC1 (racemic) [Example 100]
# output 21

# input // lookup IC50 for N#Cc1ccc(N2N=C3c4ccc(C(=O)O)cc4CCC3C2c2ccoc2)cc1Cl (racemic) [Example 46]
# output 69

# input // lookup IC50 for C[S+]([O-])CCNC(=O)c1ccc2c(c1)CC[C@H]1C2=NN(c2ccc(C#N)c(Cl)c2)[C@H]1c1ccc(F)cc1 (mixture of isomers) [Example 101]
# output 23

# input // lookup IC50 for N#Cc1ccc(N2N=C3c4ccc(C(=O)NCCO)cc4CC[C@@H]3[C@@H]2C2CCCC2)cc1Cl [Example 115]
# output 3

# input // lookup IC50 for N#Cc1ccc(N2N=C3c4ccc(C(=O)O)cc4OCC3C2c2ccc(F)cc2)cc1 (racemic) [Example 58]
# output 3180

# input // lookup IC50 for Cc1ncc(C2C3CCc4cc(C(=O)NCCS(C)(=O)=O)ccc4C3=NN2c2ccc(C#N)c(Cl)c2)s1 (stereo not drawn) [Example 118]
# output 19

###

# assay-target: mineralocorticoid receptor (MR) (Homo sapiens, UniProt P08235)
# Construct: expressed in transfected cells; host or cells: Huh7 (human liver cells)
# Sequence (P08235 726-964 limits assumed): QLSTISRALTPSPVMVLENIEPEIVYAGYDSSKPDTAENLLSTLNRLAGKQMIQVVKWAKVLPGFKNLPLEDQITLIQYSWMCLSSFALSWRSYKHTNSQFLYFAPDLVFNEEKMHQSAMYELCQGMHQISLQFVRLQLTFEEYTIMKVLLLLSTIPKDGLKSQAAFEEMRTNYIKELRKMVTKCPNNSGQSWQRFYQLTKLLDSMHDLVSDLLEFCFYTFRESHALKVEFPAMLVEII
# protocol-summary: Cell-based Gal4 response element-controlled luciferase reporter assay (MR antagonism)
# measurement-setup: Huh7 human liver cells transfected with Gal4 DBD-MR LBD fusion and luciferase reporter; block of agonist-induced activation; overnight incubation
measure-name: IC50

# input // lookup IC50 for N#Cc1ccc(N2N=C3c4ccc(C(=O)O)cc4OC[C@@H]3[C@@H]2c2ccc(F)cc2)cc1
# output > 1000 nM

# input // lookup IC50 for N#Cc1ccc(N2N=C3c4ccc(C(=O)O)cc4CCC3C2C2CCOCC2)cc1 (racemic)
# output > 1000 nM

# input // lookup IC50 for N#Cc1ccc(N2N=C3c4ccc(C(=O)O)cc4CC[C@H]3[C@H]2c2ccc(F)cc2)cc1
# output > 10000 nM

# input // lookup IC50 for N#Cc1ccc(N2N=C3c4ccc(O)cc4CC[C@H]3[C@H]2c2ccc(F)cc2)cc1Cl
# output > 1000 nM

# input // lookup IC50 for N#Cc1ccc(N2N=C3c4ccc(C(=O)NCC(=O)NCC(=O)O)cc4CC[C@H]3[C@@H]2c2ccc(F)cc2)cc1Cl (racemic)
# output > 1000 nM
